FYI, the data here is from paper PMC11528023.

Measured pIC50 of individual entries
assay target: URAT1WT (Homo sapiens, UniProt Q96S37)
Construct: expressed in transfected cells; host or cells: HEK293 cells (ATCC, CRL-3216), transient transfection with Lipofectamine 3000
test protocol: 14C-urate uptake inhibition in HEK293 cells expressing WT URAT1
Format: cell-based
pIC50: −log10 of the molar value.

>  <compound>
CC(C)(Sc1ccncc1-c1ccc(C#N)c2ccccc12)C(=O)O [verinurad]

>  <assay target>
URAT1WT (Homo sapiens, UniProt Q96S37)

>  <pIC50>
7.28

$$$$
>  <compound>
O=C(c1cc(Cl)c(O)c(Cl)c1)N1CS(=O)(=O)c2ccccc21 [dotinurad]

>  <assay target>
URAT1WT (Homo sapiens, UniProt Q96S37)

>  <pIC50>
6.77

$$$$

* * *

assay target: URAT1EM (Homo sapiens, UniProt Q96S37, A280P/A304R/A323S/A335R/D313K/DEL311-312/DEL60-62/G295A/G309E/G331A/G338L/G65T/I63V/INS307H/L287I/L292P/L321M/L328V/L337V/L341F/L64S/M324V/M330S/M343V/P317I/P333E/Q332K/R291K/R301K/R325K/R342C/S329A/T288I/T289K/T314N/T339D/W294Q/W300R)
Construct: human URAT1 (residues 3–553), a (GGGGS)3 linker, and C-terminal DARPinoff7; expressed in transfected cells; host or cells: HEK293 cells (ATCC, CRL-3216), transient transfection
Sequence (Q96S37 with tags, fused parts or gaps DEL60-62/I63V/L64S/G65T/A280P/L287I/T288I/T289K/R291K/L292P/W294Q/G295A/W300R/R301K/A304R/INS307H/G309E/DEL311-312/D313K/T314N/P317I/L321M/A323S/M324V/R325K/L328V/S329A/M330S/G331A/Q332K/P333E/A335R/L337V/G338L/T339D/L341F/R342C/M343V): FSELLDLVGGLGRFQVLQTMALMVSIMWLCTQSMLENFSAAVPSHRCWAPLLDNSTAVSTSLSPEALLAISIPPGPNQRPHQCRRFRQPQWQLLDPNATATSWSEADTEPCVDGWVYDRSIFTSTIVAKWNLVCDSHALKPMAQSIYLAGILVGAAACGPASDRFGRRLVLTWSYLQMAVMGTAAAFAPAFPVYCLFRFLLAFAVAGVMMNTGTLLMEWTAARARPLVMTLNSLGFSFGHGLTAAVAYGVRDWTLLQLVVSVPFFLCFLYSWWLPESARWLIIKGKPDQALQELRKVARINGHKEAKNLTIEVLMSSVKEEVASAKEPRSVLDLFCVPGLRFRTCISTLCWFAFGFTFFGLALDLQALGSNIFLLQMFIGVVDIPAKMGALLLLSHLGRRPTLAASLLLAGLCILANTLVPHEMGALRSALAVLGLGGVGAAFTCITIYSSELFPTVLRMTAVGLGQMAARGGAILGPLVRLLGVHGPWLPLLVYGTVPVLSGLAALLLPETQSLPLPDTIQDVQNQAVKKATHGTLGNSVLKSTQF
test protocol: 14C-urate uptake in HEK293 cells expressing URAT1EM (cryo-EM construct)
Format: cell-based
run parameters: read-out: IC50 for URAT1EM
measured endpoint: IC50

>  <compound>
CC(C)(Sc1ccncc1-c1ccc(C#N)c2ccccc12)C(=O)O [verinurad]

>  <measured endpoint>
IC50

>  <measured>
63 nM

$$$$

* * *

assay target: URAT1EM (Homo sapiens, UniProt Q96S37, A280P/A304R/A323S/A335R/D313K/DEL311-312/DEL60-62/G295A/G309E/G331A/G338L/G65T/I63V/INS307H/L287I/L292P/L321M/L328V/L337V/L341F/L64S/M324V/M330S/M343V/P317I/P333E/Q332K/R291K/R301K/R325K/R342C/S329A/T288I/T289K/T314N/T339D/W294Q/W300R)
Construct: human URAT1 (residues 3–553), a (GGGGS)3 linker, and C-terminal DARPinoff7; expressed in transfected cells; host or cells: HEK293 cells (ATCC, CRL-3216), transient transfection
test protocol: 14C-urate uptake in HEK293 cells expressing URAT1EM (cryo-EM construct)
Assay type: cell-based
Procedure: Data are shown as mean ± SD; n = 3 biological replicates. In a, b, uptake buffer: 20 mM HEPES pH 7.4, 125 mM sodium gluconate, 4.8 mM potassium gluconate, 1.2 mM monobasic potassium phosphate, 1.2 mM magnesium sulfate, 1.3 mM calcium gluconate, and 5.6 mM glucose. c Cryo-EM density maps of URAT1 in the apo and substrate-bound states. […] Putative lipid densities are in light cyan. d Cryo-EM density maps of URAT1 in the drug-bound states. […]

>  <compound>
O=C(c1cc(Cl)c(O)c(Cl)c1)N1CS(=O)(=O)c2ccccc21 [dotinurad]

>  <unit abbrev>
nM

>  <IC50>
190

$$$$
